# System Tested: Met (Homo sapiens, UniProt P08581)
# Sequence (P08581 25-1390): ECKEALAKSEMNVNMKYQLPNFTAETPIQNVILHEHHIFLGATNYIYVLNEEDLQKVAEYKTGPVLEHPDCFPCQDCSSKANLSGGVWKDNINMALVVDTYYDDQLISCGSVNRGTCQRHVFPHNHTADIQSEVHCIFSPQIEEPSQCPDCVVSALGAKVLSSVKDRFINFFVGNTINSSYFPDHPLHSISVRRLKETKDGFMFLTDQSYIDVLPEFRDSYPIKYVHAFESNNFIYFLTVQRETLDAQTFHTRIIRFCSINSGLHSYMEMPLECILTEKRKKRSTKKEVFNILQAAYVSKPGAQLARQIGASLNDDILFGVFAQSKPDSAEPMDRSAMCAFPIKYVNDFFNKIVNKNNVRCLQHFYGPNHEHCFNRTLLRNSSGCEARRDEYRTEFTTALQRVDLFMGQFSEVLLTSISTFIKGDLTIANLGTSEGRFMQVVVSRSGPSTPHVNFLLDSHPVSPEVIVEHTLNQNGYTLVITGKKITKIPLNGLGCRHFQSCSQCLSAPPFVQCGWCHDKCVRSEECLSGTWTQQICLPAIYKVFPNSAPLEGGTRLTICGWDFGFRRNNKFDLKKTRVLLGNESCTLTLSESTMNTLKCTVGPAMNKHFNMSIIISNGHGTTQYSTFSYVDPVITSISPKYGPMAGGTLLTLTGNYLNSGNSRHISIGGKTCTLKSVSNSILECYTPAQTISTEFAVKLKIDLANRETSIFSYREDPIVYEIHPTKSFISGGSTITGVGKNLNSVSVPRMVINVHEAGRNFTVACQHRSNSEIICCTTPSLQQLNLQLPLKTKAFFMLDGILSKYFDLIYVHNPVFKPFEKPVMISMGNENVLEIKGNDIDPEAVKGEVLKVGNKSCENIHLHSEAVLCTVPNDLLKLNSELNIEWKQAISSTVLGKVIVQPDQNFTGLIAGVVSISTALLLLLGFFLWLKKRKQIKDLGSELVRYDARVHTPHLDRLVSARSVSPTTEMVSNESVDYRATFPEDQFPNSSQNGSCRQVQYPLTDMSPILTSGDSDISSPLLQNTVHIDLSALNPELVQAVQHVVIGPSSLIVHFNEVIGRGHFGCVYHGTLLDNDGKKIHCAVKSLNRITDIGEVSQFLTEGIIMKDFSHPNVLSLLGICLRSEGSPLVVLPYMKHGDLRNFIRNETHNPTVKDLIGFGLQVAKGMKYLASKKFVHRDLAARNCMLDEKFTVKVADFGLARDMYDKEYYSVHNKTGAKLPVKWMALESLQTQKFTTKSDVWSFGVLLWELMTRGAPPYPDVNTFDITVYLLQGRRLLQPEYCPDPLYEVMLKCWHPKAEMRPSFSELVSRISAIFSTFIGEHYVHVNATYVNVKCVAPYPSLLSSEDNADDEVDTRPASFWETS
# Procedure Details: Met autophosphorylation ELISA in PC-3 cells
# Format: cell-based
# Design: endogenous in cells; host or cells: PC-3 prostate cancer cells (ATCC #CRL-1435)
# Measurement Parameters: cellular activity, HGF-stimulated, phospho-Met ELISA, read-out: c-Met IC50
pIC50: −log10 of the molar value.
Reported values of pIC50 for individual entries

{"columns": ["Compound", "System Tested", "pIC50"],
 "data": [
  ["O=C(Nc1ccc(F)cc1)C1(C(=O)Nc2ccc(Oc3ccnc4cc(-c5cnn(CCN6CCOCC6)c5)ccc34)cc2)CC1", "Met (Homo sapiens, UniProt P08581)", "7.00 to 8.00"],
  ["O=C(Nc1ccc(F)cc1)C1(C(=O)Nc2ccc(Oc3ccnc4cc(-c5ccn(C(F)F)n5)ccc34)cc2)CC1", "Met (Homo sapiens, UniProt P08581)", "7.00 to 8.00"],
  ["Cc1cc2c(Oc3ccc(NC(=O)C4(C(=O)Nc5ccc(F)cc5)CC4)cc3)ccnc2cc1-c1ncc[nH]1", "Met (Homo sapiens, UniProt P08581)", "7.00 to 8.00"]
]}

Query "Cc1noc(C)c1-c1ccc2c(Oc3ccc(NC(=O)C4(C(=O)Nc5ccc(F)cc5)CC4)cc3)ccnc2c1" yields pIC50 of 6.52 to 7.00

Query "O=C(Nc1ccc(F)cc1)C1(C(=O)Nc2ccc(Oc3ccnc4cc(-c5cncs5)ccc34)cc2)CC1" yields pIC50 of 7.00 to 8.00

Query "Cc1ccn(-c2ccc3c(Oc4ccc(NC(=O)C5(C(=O)Nc6ccc(F)cc6)CC5)cc4)ccnc3c2)n1" yields pIC50 of 7.00 to 8.00

Query "O=C(Nc1ccc(F)cc1)C1(C(=O)Nc2ccc(Oc3ccnc4cc(-c5ccc(N6CCCC6)nc5)ccc34)cc2)CC1" yields pIC50 of 6.52 to 7.00

Query CC(=O)N1CCC(c2ccc3c(Oc4ccc(NC(=O)C5(C(=O)Nc6ccc(F)cc6)CC5)cc4)ccnc3c2)C1 (stereo not drawn) yields pIC50 of 7.00 to 8.00

Query "Cc1ccc(-c2ccc3c(Oc4ccc(NC(=O)C5(C(=O)Nc6ccc(F)cc6)CC5)cc4)ccnc3c2)cn1" yields pIC50 of 7.00 to 8.00
